Ref: PubChem BioAssay AID1456

biological target: Solute carrier family 12 member 5 (Homo sapiens) (UniProt Q9H2X9); assay: modulation of human KCC2 ion transport – cell-based, HEK293 KCC2, FluoZin-2 fluorescence, MLSMR, primary screen (AID 1456); conditions: KCC2 cells, thallium flux FluoZin-2 fluorescence; at 10 µM;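 note: slope of fluorescence scaled to starting intensity during 10 to 20 s after thallium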
Sequence (Q9H2X9 whole entry, looked up): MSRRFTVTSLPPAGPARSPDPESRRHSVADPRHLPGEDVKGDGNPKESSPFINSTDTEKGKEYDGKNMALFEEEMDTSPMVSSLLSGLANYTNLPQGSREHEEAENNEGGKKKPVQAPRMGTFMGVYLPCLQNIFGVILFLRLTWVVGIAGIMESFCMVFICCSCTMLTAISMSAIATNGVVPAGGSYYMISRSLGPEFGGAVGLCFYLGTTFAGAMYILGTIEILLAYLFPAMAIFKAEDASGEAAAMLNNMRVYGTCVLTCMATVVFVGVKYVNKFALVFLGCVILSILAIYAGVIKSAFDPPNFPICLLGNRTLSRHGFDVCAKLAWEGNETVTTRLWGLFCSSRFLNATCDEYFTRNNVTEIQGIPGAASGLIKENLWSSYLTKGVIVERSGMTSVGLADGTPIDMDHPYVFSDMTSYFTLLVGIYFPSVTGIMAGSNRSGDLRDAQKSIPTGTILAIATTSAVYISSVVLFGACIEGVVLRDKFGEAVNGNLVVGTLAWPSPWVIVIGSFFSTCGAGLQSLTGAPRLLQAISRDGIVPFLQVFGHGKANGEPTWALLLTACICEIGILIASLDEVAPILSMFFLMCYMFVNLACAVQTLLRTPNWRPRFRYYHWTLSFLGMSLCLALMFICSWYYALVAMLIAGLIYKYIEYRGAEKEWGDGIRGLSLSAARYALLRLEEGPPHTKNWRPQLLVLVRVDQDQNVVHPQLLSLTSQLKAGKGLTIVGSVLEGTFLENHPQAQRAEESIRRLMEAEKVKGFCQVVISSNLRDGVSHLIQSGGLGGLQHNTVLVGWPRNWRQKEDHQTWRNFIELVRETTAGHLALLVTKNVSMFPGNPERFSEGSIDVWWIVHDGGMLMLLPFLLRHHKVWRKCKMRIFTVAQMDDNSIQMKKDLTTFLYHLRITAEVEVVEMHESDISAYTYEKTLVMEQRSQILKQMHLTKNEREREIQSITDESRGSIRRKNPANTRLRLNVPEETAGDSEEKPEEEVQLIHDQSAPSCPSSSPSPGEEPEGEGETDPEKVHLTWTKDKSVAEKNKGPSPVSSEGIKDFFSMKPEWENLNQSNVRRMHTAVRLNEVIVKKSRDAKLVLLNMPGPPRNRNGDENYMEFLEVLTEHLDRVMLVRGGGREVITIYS
Screen size: about 190,000 compounds; about 4,100 (2.2%) were called active. The entries come from a sample that favours actives as a whole.
Listed below: B-score of Tl+ flux slope (higher = more flux/activation; lower = inhibition) values for each entry.
RESULT TYPE: B-score of Tl+ flux slope (higher = more flux/activation; lower = inhibition)

>  <COMPOUND>
Cc1cc(NC(=O)CN2CCCC(C)C2)n(-c2nc3ccccc3s2)n1 (stereo unspecified)

>  <TESTED SYSTEM>
Solute carrier family 12 member 5 (Homo sapiens) (UniProt Q9H2X9)

>  <EXPERIMENTAL RESULT>
0.312 (inactive)

$$$$
>  <COMPOUND>
N#Cc1ccc(C(=O)Nc2cccc3cccnc23)c(F)c1

>  <TESTED SYSTEM>
Solute carrier family 12 member 5 (Homo sapiens) (UniProt Q9H2X9)

>  <EXPERIMENTAL RESULT>
0.429 (inactive)

$$$$
>  <COMPOUND>
CCC(C)Cn1c(O)cc2nn(-c3nc4ccccc4s3)c(=O)c-2c1C (stereo unspecified)

>  <TESTED SYSTEM>
Solute carrier family 12 member 5 (Homo sapiens) (UniProt Q9H2X9)

>  <EXPERIMENTAL RESULT>
5.85 (active)

$$$$
>  <COMPOUND>
CC1=NNC(=O)C1CCC(=O)N/N=C(\C)c1ccc(Cl)cc1 (stereo unspecified)

>  <TESTED SYSTEM>
Solute carrier family 12 member 5 (Homo sapiens) (UniProt Q9H2X9)

>  <EXPERIMENTAL RESULT>
-0.012 (inactive)

$$$$
>  <COMPOUND>
CCC(CC)NC(=O)CSc1nnc(-c2c[nH]c3ccccc23)o1

>  <TESTED SYSTEM>
Solute carrier family 12 member 5 (Homo sapiens) (UniProt Q9H2X9)

>  <EXPERIMENTAL RESULT>
-3.08 (active)

$$$$
>  <COMPOUND>
CCOC(=O)N1CCN(CC(=O)Nc2cc(C)nn2-c2nc3ccccc3s2)CC1

>  <TESTED SYSTEM>
Solute carrier family 12 member 5 (Homo sapiens) (UniProt Q9H2X9)

>  <EXPERIMENTAL RESULT>
-0.634 (inactive)

$$$$
